- TARGET_OR_TEST_SYSTEM: GABA-A receptor; anion channel (Bos taurus) (UniProt P10063+P08220+P20237+P08219+P10064+P22300)
- PROTOCOL_DESCRIPTION: Relative binding to GABA-A receptor in the presence and absence of GABA (GABA shift), Ki(-GABA)/Ki(+GABA)
- Format: protein-complex assay
Ratio by entry:
MEASUREMENT_NAME: Ratio

> print(dat)
                                    molecule  observed.value
 1  O=C(NCCc1ccc(O)cc1)C(=O)c1c[nH]c2ccccc12             0.7
 2  COc1cccc(CCNC(=O)C(=O)c2c[nH]c3ccccc23)c1             1.2
 3  COc1ccc(CCNC(=O)C(=O)c2c[nH]c3ccc([N+](=O)[O-])cc23)cc1OC               1
 4  O=C(NCCc1ccc(O)c(O)c1)C(=O)c1c[nH]c2ccc(Br)cc12             0.7
 5  O=C(NCCc1ccc(O)c(O)c1)C(=O)c1c[nH]c2ccc(Cl)cc12            0.52
 6  O=C(NCCc1ccc(O)cc1)C(=O)c1c[nH]c2ccc(Cl)cc12             0.8
 7  O=C(NCCc1ccc(O)c(O)c1)C(=O)c1c[nH]c2ccccc12            0.92
 8  CCOC(=O)c1ncn2c1CN(C)C(=O)c1cc(F)ccc1-2 [FLUMAZENIL]               1
 9  O=C(NCCc1c[nH]c2ccccc12)C(=O)c1c[nH]c2ccccc12               1
10  O=C(NCCc1ccc(O)cc1)C(=O)c1c[nH]c2ccc(Br)cc12             0.8
11  COc1ccc(CCNC(=O)C(=O)c2c[nH]c3ccccc23)cc1             1.3
12     O=C(NCCc1ccccc1)C(=O)c1c[nH]c2ccccc12             1.3
13  CN1C(=O)CN=C(c2ccccc2)c2cc(Cl)ccc21 [DIAZEPAM]             1.7
14  O=C(NCCc1ccc(Cl)cc1)C(=O)c1c[nH]c2ccccc12             1.2
15  COc1ccc(CCNC(=O)C(=O)c2c[nH]c3ccccc23)cc1OC             1.3
16  O=C(NCCc1c[nH]c2ccccc12)C(=O)c1c[nH]c2ccc([N+](=O)[O-])cc12            0.65
17  O=C(NCCc1ccc(O)c(O)c1)C(=O)c1c[nH]c2ccc([N+](=O)[O-])cc12            0.64
18  O=C(NCCc1ccc(O)cc1)C(=O)c1c[nH]c2ccc([N+](=O)[O-])cc12             0.7
19  COc1ccc(CCNC(=O)C(=O)c2c[nH]c3ccc(Cl)cc23)cc1OC             1.3

---

- TARGET_OR_TEST_SYSTEM: GABA-A receptor; anion channel (Bos taurus) (UniProt P10063+P08220+P20237+P08219+P10064+P22300)
- PROTOCOL_DESCRIPTION: In vitro inhibition of [3H]flunitrazepam binding to GABA-A benzodiazepine receptor of bovine cerebral cortical membranes at 10 uM
MEASUREMENT_NAME: inhibition (%)

> print(dat)
                                     smiles  observed.value
1  O=C(NCCc1ccc(O)c(O)c1)C(=O)c1c[nH]c2ccc([N+](=O)[O-])cc12             100
2  O=C(NCCc1ccc(O)c(O)c1)C(=O)c1c[nH]c2ccccc12              68
3  Cn1cc(C(=O)C(=O)NCCc2ccc(O)c(O)c2)c2ccccc21              17
4  O=C(NCCc1ccc(O)c(O)c1)C(=O)c1c[nH]c2ccc(Br)cc12              85
5  Cn1cc(C(=O)C(=O)NCCc2ccc(Cl)cc2)c2ccccc21              25
6  O=C(NCCc1ccc(O)c(O)c1)C(=O)c1c[nH]c2ccc(Cl)cc12              90
